assay: Plasma genistein levels in postmenopausal women, six month treatment (HPLC-UV); format: in vivo, human; settings: female, human, in vivo, 54 mg/d
measured-attribute: concentration at 6 months

Query block: Name the reported concentration at 6 months value associated with the molecule O=c1c(-c2ccc(O)cc2)coc2cc(O)cc(O)c12
Result block: ~1.2 µM
